Tested on: MDA-MB-435
Test: NCI tumour cell line growth inhibition, 48 h
Here, each record is paired with measured TGI data.

# molecule, TGI
rows = [
    ("COc1ccc(C2=NN(c3ccc(S(N)(=O)=O)cc3)C(c3ccc(Cl)cc3)C2)c(O)c1 (stereo not given)", "13.8 µM"),
    ("O=C(CCl)Nc1ccc(-c2nc3ccccc3s2)cc1", "12.2 µM"),
    ("N#CCCN(CCC#N)c1ccc(/C=C2\\N=C(c3ccccc3)N(NC(=O)c3ccncc3)C2=O)cc1", "> 100 µM"),
    ("CN(C)c1ccc(N=C(C#N)c2nc(N)nc(N3CCOCC3)n2)cc1", "> 100 µM"),
    ("CCOC(=O)/C(=C/c1c(-c2ccccc2)[nH]c2ccccc12)C(=O)c1ccc(Cl)cc1", "> 100 µM"),
    ("CCN(CC)c1ccc(/C=C/C2=[N+](C)c3ccccc3C2(C)C)cc1", "4.91 µM"),
    ("CCOP(=O)(OCC)OC1CC(n2cnc3c(N(CC)CC)ncnc32)OC1CO[Si](C)(C)C(C)(C)C (stereo not given)", "31.7 µM"),
    ("COc1ccc([N+](=O)[O-])cc1[I+]c1cc([N+](=O)[O-])ccc1OC", "49.3 µM"),
    ("C/C(=N\\NC(=S)Nc1ccccc1)c1ccccn1", "4.28 µM"),
    ("CC(C)=CCc1c(O)c(CC=C(C)C)c2oc3c(c(=O)c2c1O)C(C=C(C)C)Oc1cc(O)ccc1-3 (stereo not given)", "13.7 µM"),
]

----------
Here, each record is paired with measured TGI data.
System: SW-620 colon
Test: NCI tumour cell line growth inhibition, 48 h

# compound, unitTag, resultComparator, TGI
measured = [
    ("CC1(C)CC(C2CC(C)(C)CC(C)(C)[C@H]2O)[C@@H](O)C(C)(C)C1 (stereo not given in full)", "µM", ">", 100),
    ("O=C(/C=C/c1cccnc1)/C=C/c1cccnc1", "µM", "=", 2.48),
    ("CC1(C)CC[C@]2(C(=O)O)CCC3(C)C(=CCC4[C@@]5(C)CC[C@H](OC6OCC(O)C(O)C6OC6OC(CO)C(O)C(O)C6O)C(C)(C)C5CC[C@]43C)C2C1 (stereo not given in full)", "µM", "=", 4.03),
    ("COC(=O)CC(CC(=O)C(=O)OC)C(=O)OC (stereo not given)", "µM", ">", 100),
    ("COc1cccc(C2C3=C(COC3=O)N(CCO)c3cc4c(cc32)CCC4)c1 (stereo not given)", "µM", ">", 50),
]

----------
Test system: SNB-19 CNS
Assay: NCI tumour cell line growth inhibition, 48 h
Here, each record is paired with measured TGI data.
measurementLabel: TGI (µM)

# molecule, unitTag, resultComparator, numericValue
measured = [
    ("O=C(CCl)Nc1ccc(-c2nc3ccccc3s2)cc1", "µM", "=", 9.99),
    ("Nc1nc(Cl)cc(NCC2(CO)CC(O)C2)n1 (configuration not stated)", "µM", ">", 100),
    ("Cc1nc(N=C(N)N)nc2ccc3ccccc3c12", "µM", "=", 4.89),
    ("O=C1Nc2ccccc2/C1=C\\c1c(Cl)[nH]c2ccccc12", "µM", "=", 5.21),
    ("C[C@@H](Oc1cc(-n2cnc3ccc(OCC4CCN(C)CC4)cc32)sc1C(N)=O)c1ccccc1C(F)(F)F", "µM", "=", 4.56),
    ("Cc1ccc(CCCC(=O)O)cc1C", "µM", ">", 100),
    ("COC(=O)C1(C)CCc2c(ccc3ccccc23)C1=O (configuration not stated)", "µM", ">", 100),
    ("COC(=O)C12C3C=CC(O3)C1C1C=CC2O1 (configuration not stated)", "µM", ">", 100),
    ("CN(N=O)C(N)=NC(=O)c1ccccc1", "µM", ">", 100),
    ("CC(=O)Nc1ccc2c(c1)C(=Nc1ccc(C(=O)O)cc1)c1ccccc1-2", "µM", ">", 100),
    ("O=C(CC(C(=O)c1ccsc1)c1cccs1)c1ccsc1 (configuration not stated)", "µM", ">", 100),
    ("COC(=O)C1(c2ccc(OC)cc2)NC(c2ccccc2)C2C(=O)N(c3ccc(OC)cc3)C(=O)C21 (configuration not stated)", "µM", ">", 100),
    ("C[N+](C)(C)C(Cc1c[nH]c(=S)[nH]1)C(=O)O (configuration not stated)", "µM", ">", 100),
    ("CC(=O)NC1C(OCc2ccccc2)OC(CO)C(O)C1OC(C)C(=O)NC(C(=O)NC(CCC(=O)Nc1ccc2c(c1)CN1C(=O)c3ccccc3C1=N2)C(N)=O)C(C)C (configuration not stated)", "µM", ">", 100),
    ("CC(C)=CCc1c(O)c(CC=C(C)C)c2oc3c(c(=O)c2c1O)C(C=C(C)C)Oc1cc(O)ccc1-3 (configuration not stated)", "µM", "=", 24.2),
    ("c1ccc2c(-c3ccnc(-c4c[nH]c5ccccc45)n3)c[nH]c2c1", "µM", ">", 100),
    ("Cn1cccc1C1CC(=O)N(CCC[Se]C#N)C1=O (configuration not stated)", "µM", "=", 3.08),
    ("C=C1C(=O)C23C(O)C1CCC2C12CO[C@]3(O)[C@@H](O)C1C(C)(C)CCC2O (some centres not stated)", "µM", "=", 28.6),
    ("CC(C)c1cc(C(C)C)c(P2(=O)CC3C(Cl)(Cl)C3(C)C2)c(C(C)C)c1 (configuration not stated)", "µM", "=", 19.4),
    ("c1ccc(COc2ccc(Nc3ncnc4ccc(-c5ccco5)cc34)cc2)cc1", "µM", ">", 25),
    ("CCOc1ccc(NC(=O)/C(=C/c2ccccc2)C(C)=O)cc1", "µM", "=", 24.9),
    ("O=C1C(c2c(O)n(-c3ccccc3)c3ccccc23)=Nc2ccccc21", "µM", ">", 100),
]

Data origin, for the record: PubChem BioAssay (NCI)
